Data origin: patent US20220282217A1

assayed.target: HLA-A02.01 (Homo sapiens, UniProt P04439, D140Y/D185E/D98H/E176V/E277Q/G131W/G231S/I119V/I121R/I166T/I218V/L300P/L318F/N151K/N90K/P208A/P217A/Q86G/Q94H/R138H/R169H/T345S)
assay: Class I MHC peptide binding affinity (displacement of radiolabeled reference peptide)
settings: Observed Affinity (IC50; (nM)), allele A02.01
Where a SMILES comes first, the peptide text is derived from it.
parameter: IC50 (nM)

[[record]]
compound = "CC[C@H](C)[C@H](NC(=O)[C@H](CC(N)=O)NC(=O)[C@H](CCSC)NC(=O)[C@H](Cc1c[nH]cn1)NC(=O)[C@H](CC(N)=O)NC(=O)CNC(=O)[C@H](CC(C)C)NC(=O)[C@@H](N)Cc1ccc(O)cc1)C(=O)N[C@@H](C)C(=O)N[C@@H](CC(N)=O)C(=O)O (H-YLGNHMNIAN-OH; N-terminus and C-terminus assumed)"
result_number = 1340

[[record]]
compound = "CC(C)C[C@H](N)C(=O)N[C@@H](C)C(=O)N[C@H](C(=O)N[C@@H](CCC(=O)O)C(=O)N[C@@H](CCCCN)C(=O)N[C@@H](CO)C(=O)N[C@@H](CCCNC(=N)N)C(=O)N[C@@H](Cc1c[nH]c2ccccc12)C(=O)N[C@@H](CO)C(=O)O)[C@@H](C)O (H-LATEKSRWS-OH; N-terminus and C-terminus assumed)"
result_number = 61000

[[record]]
compound = "CC(C)C[C@H](NC(=O)[C@H](CC(=O)O)NC(=O)[C@H](CO)NC(=O)[C@H](CCC(N)=O)NC(=O)[C@H](CCC(N)=O)NC(=O)[C@@H](N)CCC(N)=O)C(=O)N[C@@H](CCC(N)=O)C(=O)N1CCC[C@H]1C(=O)N1CCC[C@H]1C(=O)N[C@@H](C)C(=O)O (H-QQQSDLQPPA-OH; N-terminus and C-terminus assumed)"
result_number = 646

[[record]]
compound = "CC(C)C[C@H](NC(=O)[C@@H]1CCCN1C(=O)[C@@H]1CCCN1C(=O)[C@@H](NC(=O)[C@H](CO)NC(=O)[C@H](CC(C)C)NC(=O)[C@H](CC(C)C)NC(=O)[C@H](CCC(=O)O)NC(=O)[C@@H](N)Cc1ccccc1)[C@@H](C)O)C(=O)O (H-FELLSTPPL-OH; N-terminus and C-terminus assumed)"
result_number = 225

[[record]]
compound = "CC(C)C[C@H](N)C(=O)N[C@H](C(=O)N[C@H](C(=O)N[C@H](C(=O)NCC(=O)N[C@@H](C)C(=O)N[C@@H](CS)C(=O)NCC(=O)N[C@H](C(=O)O)C(C)C)C(C)C)C(C)C)C(C)C (H-LVVVGACGV-OH; N-terminus and C-terminus assumed)"
result_number = 1210

[[record]]
compound = "CC[C@H](C)[C@H](NC(=O)[C@H](CCCCN)NC(=O)[C@H](Cc1ccc(O)cc1)NC(=O)[C@@H](NC(=O)[C@@H](NC(=O)[C@H](CC(=O)O)NC(=O)[C@H](CO)NC(=O)[C@H](CCSC)NC(=O)[C@@H](N)C(C)C)[C@@H](C)O)[C@@H](C)O)C(=O)O (H-VMSDTTYKI-OH; N-terminus and C-terminus assumed)"
result_number = 19.6

[[record]]
compound = "CC[C@H](C)[C@H](NC(=O)[C@H](CCC(N)=O)NC(=O)[C@@H](N)[C@@H](C)O)C(=O)N[C@@H](CO)C(=O)N[C@@H](CO)C(=O)N[C@@H](C)C(=O)N[C@H](C(=O)N[C@@H](CCC(=O)O)C(=O)N[C@@H](Cc1ccc(O)cc1)C(=O)N[C@@H](CC(C)C)C(=O)O)[C@@H](C)O (H-TQISSATEYL-OH; N-terminus and C-terminus assumed)"
result_number = 2640

[[record]]
compound = "CC(C)C[C@H](N)C(=O)N[C@H](C(=O)N[C@H](C(=O)N[C@H](C(=O)NCC(=O)N[C@@H](C)C(=O)N[C@@H](CC(=O)O)C(=O)NCC(=O)N[C@H](C(=O)O)C(C)C)C(C)C)C(C)C)C(C)C (H-LVVVGADGV-OH; N-terminus and C-terminus assumed)"
result_number = 1190

[[record]]
compound = "CC[C@H](C)[C@H](NC(=O)[C@H](CC(=O)O)NC(=O)[C@H](CC(C)C)NC(=O)[C@@H](N)CC(C)C)C(=O)N[C@@H](CC(C)C)C(=O)N[C@@H](CC(=O)O)C(=O)N[C@H](C(=O)N[C@@H](C)C(=O)NCC(=O)N[C@@H](CC(C)C)C(=O)O)[C@@H](C)O (H-LLDILDTAGL-OH; N-terminus and C-terminus assumed)"
result_number = 716

[[record]]
compound = "CC[C@H](C)[C@H](NC(=O)[C@H](CC(N)=O)NC(=O)[C@H](CCSC)NC(=O)[C@H](Cc1c[nH]cn1)NC(=O)[C@H](CC(N)=O)NC(=O)CNC(=O)[C@H](CC(C)C)NC(=O)[C@@H](N)Cc1ccc(O)cc1)C(=O)N[C@@H](C)C(=O)O (H-YLGNHMNIA-OH; N-terminus and C-terminus assumed)"
result_number = 117

[[record]]
compound = "CC(C)C[C@H](NC(=O)[C@@H](N)CC(C)C)C(=O)N[C@@H](CO)C(=O)N[C@H](C(=O)N1CCC[C@H]1C(=O)N1CCC[C@H]1C(=O)N[C@@H](CC(C)C)C(=O)N[C@@H](CO)C(=O)N1CCC[C@H]1C(=O)N[C@@H](CO)C(=O)O)[C@@H](C)O (H-LLSTPPLSPS-OH; N-terminus and C-terminus assumed)"
result_number = 1770

[[record]]
compound = "CC[C@H](C)[C@H](NC(=O)[C@H](CC(C)C)NC(=O)[C@H](CCC(N)=O)NC(=O)[C@@H](NC(=O)[C@@H](NC(=O)[C@H](CO)NC(=O)[C@@H](NC(=O)[C@H](CC(C)C)NC(=O)[C@@H](N)CS)[C@@H](C)O)[C@@H](C)O)C(C)C)C(=O)N[C@@H](CCSC)C(=O)O"
result_number = 716

